biological target: Aldo-keto reductase family 1 member B1 (Rattus norvegicus) (UniProt P07943); experiment: Inhibition of rat lens aldose reductase using DL-glyceraldehyde as substrate at 100 uM after 30 mins by fluorescence microplate reader analysis
Can you tell me inhibition for the items I'm about to list?
Give your result in % as a bare value.

Q: Kindly state the measured inhibition obtained for C[C@H](O)[C@H]1OC(=O)c2cc(O)cc(O)c2[C@@H]1c1ccc(O)cc1 with Aldo-keto reductase family 1 member B1 (Rattus norvegicus) (UniProt P07943).
Ans: 18.8

Q: Kindly state the measured inhibition obtained for OC[C@H]1O[C@@H](c2c(O)cc(O)cc2/C=C\c2ccc(O)cc2)[C@H](O)[C@@H](O)[C@@H]1O with Aldo-keto reductase family 1 member B1 (Rattus norvegicus) (UniProt P07943).
Ans: 39.2

Q: Kindly state the measured inhibition obtained for O=C1c2cc(O)cc(O)c2[C@H](c2ccc(O)cc2)[C@H](O)c2cc(O)cc(O)c21 with Aldo-keto reductase family 1 member B1 (Rattus norvegicus) (UniProt P07943).
Ans: 43.7

Q: Kindly state the measured inhibition obtained for Oc1ccc([C@@H]2c3cc(O)ccc3[C@@H]3c4c(O)cc(O)cc4[C@@H]2c2c(O)cc(O)c4c2[C@@H]3[C@@H](c2ccc(O)cc2)[C@@H]4c2cc(O)cc(O)c2)cc1 [VATICANOL G] with Aldo-keto reductase family 1 member B1 (Rattus norvegicus) (UniProt P07943).
Ans: 46.7

Q: Kindly state the measured inhibition obtained for OC[C@H]1O[C@@H](c2c(O)cc(O)cc2/C=C/c2ccc(O)cc2)[C@H](O)[C@@H](O)[C@@H]1O with Aldo-keto reductase family 1 member B1 (Rattus norvegicus) (UniProt P07943).
Ans: 30.3

Q: Kindly state the measured inhibition obtained for Oc1ccc([C@H]2c3c(O)cc(O)cc3[C@@H]3c4c(cc(O)cc4[C@@H]2[C@H]2c4cc(O)cc5c4[C@@H](c4cc(O)cc(O)c4[C@@H]2c2ccc(O)cc2)[C@H](c2ccc(O)cc2)O5)O[C@H]3c2ccc(O)cc2)cc1 with Aldo-keto reductase family 1 member B1 (Rattus norvegicus) (UniProt P07943).
Ans: 34.4
